Data origin, for the record: ChEMBL document CHEMBL6114973

assay: Stability in human plasma assessed as half life by LCMS analysis; format: ADME, cell-free
Each item that follows carries a reported t1/2.
Could you kindly put the unit after your number?

Solved entries (count: 3):
* C/C(=C\CCP(=O)(OCOC(=O)c1cn(-c2ccc(C(C)C)cc2)nn1)Oc1ccccc1)CO (centres undefined) | 106 min
* COCCc1ccc(OP(=O)(CC/C=C(\C)COC(C)=O)OCOC(=O)c2cn(-c3ccc(F)cc3F)nn2)cc1 (centres undefined) | 22 min
* C/C(=C\CCP(=O)(OCOC(=O)c1cn(-c2ccc(C(C)C)cc2)nn1)Oc1ccc(C(C)C)cc1)CO (centres undefined) | 75 min

Field t1/2 (entry CC(=O)OC/C(C)=C/CCP(=O)(OCOC(=O)c1cn(-c2ccccc2)nn1)Oc1ccccc1 (centres undefined) ) reads 32 min

Field t1/2 (entry CC(=O)OC/C(C)=C/CCP(=O)(OCOC(=O)c1cn(-c2ccc(C(C)C)cc2)nn1)Oc1ccccc1 (centres undefined) ) reads 89 min

Field t1/2 (entry C/C(=C\CCP(=O)(OCOC(=O)c1cn(-c2ccccc2)nn1)Oc1ccccc1)CO (centres undefined) ) reads 16 min

Field t1/2 (entry COCCc1ccc(OP(=O)(CC/C=C(\C)CO)OCOC(=O)c2cn(-c3ccc(F)cc3F)nn2)cc1 (centres undefined) ) reads 29 min

Field t1/2 (entry CC(=O)OC/C(C)=C/CCP(=O)(OCOC(=O)c1cn(-c2ccccc2)nn1)Oc1ccc(C(C)C)cc1 (centres undefined) ) reads 30 min

Field t1/2 (entry CC(=O)OC/C(C)=C/CCP(=O)(OCOC(=O)c1cn(-c2ccc(F)cc2)nn1)Oc1ccccc1 (centres undefined) ) reads 63 min

Field t1/2 (entry C/C(=C\CCP(=O)(OCOC(=O)c1cn(-c2ccccc2)nn1)Oc1ccc(C(C)C)cc1)CO (centres undefined) ) reads 46 min

Field t1/2 (entry CC(=O)OC/C(C)=C/CCP(=O)(OCOC(=O)c1cn(-c2ccc(F)cc2)nn1)Oc1ccc(C(C)C)cc1 (centres undefined) ) reads 47 min

Field t1/2 (entry C/C(=C\CCP(=O)(OCOC(=O)c1cn(-c2ccc(F)cc2)nn1)Oc1ccccc1)CO (centres undefined) ) reads 28 min

Field t1/2 (entry CC(=O)OC/C(C)=C/CCP(=O)(OCOC(=O)c1cn(-c2ccc(C(C)C)cc2)nn1)Oc1ccc(C(C)C)cc1 (centres undefined) ) reads 103 min

Field t1/2 (entry C/C(=C\CCP(=O)(OCOC(=O)c1cn(-c2ccc(F)cc2)nn1)Oc1ccc(C(C)C)cc1)CO (centres undefined) ) reads 35 min
